B1: glmS ribozyme (parent)
chain: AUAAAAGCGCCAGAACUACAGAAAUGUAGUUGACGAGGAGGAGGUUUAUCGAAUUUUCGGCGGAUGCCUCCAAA

- Variants of: B1
- Assay Summary: self-cleavage kobs at 10000 uM GlcN6P; higher = faster cleavage; RNA array
- Measurement Conditions: with glucosamine-6-phosphate
Fewer inactive variants are shown than the library holds.
Please respond with reported self-cleavage kobs at 10000 uM GlcN6P for every item in the list.
The response must be a number in s⁻¹ with no trailing unit.

Item AUAAAAGCGCCAGAACUACAGAAAUGUACUUGACGAGGAGGAGGUUUAUCGAAUUUUCGGCGGAGGCCUCCAAA [G29C U65G] has what recorded self-cleavage kobs at 10000 uM GlcN6P? 0.000591

For AUAAAAGCGCCAGAACUACAGAAAUGUAGUUAACGAGGAGGAGGUUUAUCGAAUUUUCGGCGGAUGCCGCCAAA [G32A U69G] then? 5.26e-05

For AUAAAAGCGCCAGAACUACAGAAAUGUAAUUGACGAGGAGUAGGUUUAUCGAAUUUUCGGCGGAUGCCUCCAAA [G29A G41U] then? 8.74e-05

For AUAAAAGCGCCAGAACUACAGAAAUGUAUUUGACGAGGAGGAGGUUUAUGGAAUUUUCGUCGGAUGACUCCAAA [G29U C50G G60U C67A] then? 0.000133

For AUAAAAGCGCCAGACCUACAGAAAUGUAGUUGACGAGGAGGAGGUUUAUCGAUUUUUCGGCGGAUGCCUCGAAA [A15C A53U C71G] then? 0.000151

For AUAAAAGCGCCGGAACUACAGAAAUGUAGUUGACGAGGAGGAGGCUUAUCGAAUUUUCGGCGGAUGCCUCCAAA [A12G U45C] then? 5.04e-05
